- experimental target: T1, recombinant human IL4Rα-his protein (in house made) (human, UniProt P24394 26-232, limits assumed)
- T1 construct: also called Human IL4Ra-his
- measurement description: SPR (Biacore), antibody captured, IL4Rα-his flowed
measured endpoint: koff (s⁻¹)
Entry rule: numbers only, all in s⁻¹.

>>> result("huB8G11F2B7G5E8-V1 (antibody, human IgG4 S228P, kappa, V domains shown, Humanized, human IgG4/kappa; also called huBSG11F2B7G5E8-V1) VH: EVQLVQSGAEVKKPGATVKISCKASGFNIKDTYMHWVKQAPGKGLEWVGRIDPTNGYTIYASKFQGKATITADTSSNTAYMELSSLRSEDTAVYHCVSRRPWFAYWGQGTLVTVSS VL: DIVMTQTPLSLSVTPGQPASISCRSSQSIVHSNGNTYLEWYLQKPGQSPQLLIYKVTNRFSGVPDRFSGSGSGTDFTLKISRVEAEDVGVYYCFQGSHVPYTFGQGTKLEIKR")
0.00208
>>> result("huB8G11F2B7G5E8-V13 (antibody, human IgG4 S228P, kappa, V domains shown, Humanized, human IgG4/kappa; also called huBSG11F2B7G5E8-V13) VH: QVQLQQSGAELVKPGASVKLSCTASGFNIKDTYMHWVKQRPEQGLEWVGRIDPTNGYTIYASKFQGKATITADTSSNTAYMQLSSLTSEDTAVYHCVSRRPWFAYWGQGTTLTVSS VL: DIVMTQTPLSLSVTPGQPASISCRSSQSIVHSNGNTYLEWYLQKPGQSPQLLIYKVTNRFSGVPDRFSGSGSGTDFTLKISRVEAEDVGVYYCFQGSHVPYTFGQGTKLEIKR")
0.0012
>>> result("huB8G11F2B7G5E8-V9 (antibody, human IgG4 S228P, kappa, V domains shown, Humanized, human IgG4/kappa; also called huBSG11F2B7G5E8-V9) VH: EVQLVQSGAEVKKPGATVKISCKASGFNIKDTYMHWVKQAPGKGLEWVGRIDPTNGYTIYASKFQGKATITADTSSNTAYMELSSLRSEDTAVYYCVSRRPWFAYWGQGTLVTVSS VL: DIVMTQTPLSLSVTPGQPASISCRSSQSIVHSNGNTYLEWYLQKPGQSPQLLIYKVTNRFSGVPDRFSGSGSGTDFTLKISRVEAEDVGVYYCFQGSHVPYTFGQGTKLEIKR")
0.00331

Now take the following binder into account.
IN: Bench note: what koff did huB8G11F2B7G5E8-V8 (antibody, human IgG4 S228P, kappa, V domains shown, Humanized, human IgG4/kappa; also called huBSG11F2B7G5E8-V8) VH: EVQLVQSGAEVKKPGATVKISCKASGFNIKDTYMHWVKQAPGKGLEWVGRIDPTNGYTIYASKFQGKATITADTSSDTAYMELSSLRSEDTAVYHCVSRRPWFAYWGQGTLVTVSS VL: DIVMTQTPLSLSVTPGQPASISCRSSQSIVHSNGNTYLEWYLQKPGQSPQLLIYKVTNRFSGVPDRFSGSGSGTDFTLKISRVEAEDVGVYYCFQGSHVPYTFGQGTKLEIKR show?
OUT: 0.00283

Where do these numbers come from? They come from patent US20230105029A1.
